target: T1, histidine-tagged mouse EphA2 Fc fusion protein (mouse, UniProt Q03145 26-535, limits assumed); experiment: SPR (BIAcore 3000), EphA2 Fc coupled to the chip, equilibrium binding
T1 construct: Bought; also called Eph2 Fc; not shown: Fc region; histidine tag
T1 sequence (Q03145 26-535 limits assumed): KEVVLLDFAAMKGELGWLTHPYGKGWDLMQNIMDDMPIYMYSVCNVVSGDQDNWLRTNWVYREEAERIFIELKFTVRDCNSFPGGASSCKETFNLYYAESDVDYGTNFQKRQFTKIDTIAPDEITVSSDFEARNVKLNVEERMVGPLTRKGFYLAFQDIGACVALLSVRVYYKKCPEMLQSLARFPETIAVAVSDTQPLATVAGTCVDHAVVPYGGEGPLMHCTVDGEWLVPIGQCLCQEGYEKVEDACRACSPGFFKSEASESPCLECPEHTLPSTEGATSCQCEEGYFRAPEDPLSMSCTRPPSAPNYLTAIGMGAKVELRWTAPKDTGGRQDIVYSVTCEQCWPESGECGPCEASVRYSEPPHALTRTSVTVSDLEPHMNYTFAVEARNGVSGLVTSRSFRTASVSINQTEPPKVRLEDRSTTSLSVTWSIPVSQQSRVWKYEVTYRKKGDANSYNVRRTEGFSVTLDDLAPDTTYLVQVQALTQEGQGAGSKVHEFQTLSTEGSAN
Where no end group is shown, it is not given here.
Measured Attribute: pKd
Interpret pKd as the negative base-10 log of the concentration measured in mol/L.

Per the record, SWLAYPGAVSYRGSGSK (also: biotinylated (position not given here)) [synthetic SWL peptide (SWLAYPGAVSYR)] has pKd of 6.17
